# Tested on: OVCAR-5 ovarian
# ASSAY: NCI-60 one-dose screen, 48 h (100 = growth as untreated, 0 = no growth, -100 = all killed)
# MEASUREMENT SETUP: 10 µM unless noted
Compounds without any hit were thinned out: in the full panel of roughly 83,000, 20% have a hit.
Mark NO for growth values under 50%, and YES for everything at or above.

COMPOUND	CLASS
O=C(CC1(O)C(=O)N(Cc2ccccc2)c2ccc(F)cc21)c1ccc(C(=O)NCC2CCC3(CC2)OOC2(CCCCC2)OO3)cc1 (stereo not given)	NO
N#CC1(C#N)C(c2ccc(N(CCCl)CCCl)cc2)OC23CCCCC2C1(C#N)C(=N)O3 (stereo not given)	YES
C/C1=C/C(=O)O[C@@H]2C[C@@H](CC[C@H](C)/C=C\C=C\CC1)O[C@@](O)([C@@H]1CSC(=O)N1CO)C2	NO
CCn1nccc1NC(=O)C(=O)c1cn(Cc2ccc(F)cc2)c2cccc(OC)c12	YES
CCC1(C)CC(CCNCc2ccccc2O)(c2ccc(C)cc2)CCO1 (stereo not given)	YES
CC1=C(O)[C@@](C)(CCCCC[C@H](C)CCCCc2ccc(O)cc2)OOC1=O	YES
CC1(C)C(C(=O)c2cn(CCCCF)c3ccccc23)C1(C)C	YES
COc1cccc(C=NC(Cc2cnc[nH]2)C(=O)O)c1O (stereo not given)	YES
O=[N+]([O-])c1cc([N+](=O)[O-])c(Cl)cc1Cl	NO
CCCCCN(CCCCC)CC(O)c1cc(Cl)ccc1OC (stereo not given)	YES
O=P(Oc1ccc(Cl)cc1)(N1CC1)N1CC1	YES
O=C1C2CC=CCC2C(=O)N1SC(Cl)(Cl)Cl (stereo not given)	YES
O=C1CC2(CC3(Cl)C(Cl)=C(Cl)C2(Cl)C3(Cl)Cl)C(=O)O1 (stereo not given)	YES
CC[C@H](C)[C@H](NC(=O)[C@H]1CCCCN1C)C(=O)N(C)[C@H](C[C@@H](O)c1nc(C(=O)N[C@@H](Cc2ccccc2)C[C@H](C)C(=O)O)cs1)C(C)C	YES
COc1cccc(/C=C/[N+](=O)[O-])c1	YES
CCOC(=O)[C@@H](C)C[C@H](Cc1ccccc1)NC(=O)c1nc([C@@H](C[C@H](C(C)C)N(C)C(=O)[C@@H](NC(=O)[C@H]2CCCCN2C)C(C)C)OC(C)=O)sc1CCOCc1ccccc1	NO
Cc1cc(N(CCCl)CCCl)ccc1/C=N\NC(=O)c1ccncc1	YES
O=C([O][Hg][c]1ccccc1)c1ccccc1	NO
COc1cc2c(cc1OCCCCn1c(-c3cccs3)nc3ccccc31)N=C[C@@H]1CCCN1C2=O	NO
Clc1cccc(NCOOC2(OOCNc3cccc(Cl)c3)CCCCC2)c1	YES

====

# growth per entry
# System: SF-295 CNS
# ASSAY: NCI-60 one-dose screen, 48 h (100 = growth as untreated, 0 = no growth, -100 = all killed)
# MEASUREMENT SETUP: 10 µM unless noted
Compounds without any hit were thinned out: in the full panel of roughly 83,000, 20% have a hit.

COMPOUND	UNITS OF MEASURE	growth
CCCCN(CCCC)P(=O)(Oc1ccccc1)Oc1ccccc1	%	64.5
Clc1ccc(CSC(Cn2ccnc2)c2ccc(Cl)cc2Cl)cc1 (stereo not given)	%	10.7
O=C(N/N=C\c1ccc(N(CCCl)CCCl)cc1Cl)c1cccnc1	%	59.6
COc1ccc(C(=O)c2cc(OC)c(OC)c(OC)c2)cc1OC(C)=O	%	15.4
C/C(=C\c1ccn(-c2ccc(N)c(F)c2)n1)[C@@H]1C[C@@H]2O[C@]2(C)CCC[C@H](C)[C@H](O)[C@@H](C)C(=O)C(C)(C)[C@@H](O)CC(=O)O1	%	17.1

====

# Test system: MALME-3M melanoma
# ASSAY: NCI-60 one-dose screen, 48 h (100 = growth as untreated, 0 = no growth, -100 = all killed)
# MEASUREMENT SETUP: 10 µM unless noted
About 83,000 compounds went through this panel and 20% of them were active in at least one assay; those are over-represented in the sample as a whole.
MEASURED PROPERTY: growth (%)

COMPOUND	UNITS OF MEASURE	ENDPOINT VALUE
Nc1ccc(Cl)cc1	%	104
CN(C)CCCOc1ccc2c(c1)c(C(=O)C(=O)NCCO)cn2Cc1ccccc1	%	97.1
COc1cc2c(c(OC)c1OC)-c1ccc([O-])c(=O)cc1[C@@H](NC(C)=O)CC2.COc1cc2c(c(OC)c1OC)-c1ccc([O-])c(=O)cc1[C@@H](NC(C)=O)CC2.[Cu+2]	%	52.5
CC[C@H](C)[C@H](NC(=O)c1nccn1C)C(=O)N(C)[C@H](C[C@@H](OC(C)=O)c1nc(C(=O)N[C@@H](Cc2ccccc2)C[C@H](C)C(=O)OC)cs1)C(C)C	%	71.6
CCCC(C)C1(CC)C(=O)NC(=O)N(C)C1=O (configuration not stated)	%	90.1
O=C(Nc1ccc(Br)cc1)c1cc(Br)cc(Br)c1O	%	-12
C#C[C@]1(OC(=O)CCCCCC)CC[C@H]2[C@@H]3CCC4=CC(=O)CC[C@@H]4[C@H]3CC[C@@]21C	%	77.1
COc1ccc(C2=N[C@@H](Cc3ccccc3)C(=O)Nc3ccsc32)cc1	%	48.6
Clc1ccc(COC(Cn2ccnc2)c2ccc(Cl)cc2Cl)cc1 (configuration not stated)	%	42.9
NC(=Nc1ccccc1)N[N+](=O)[O-]	%	103
CC(=O)Nc1nc2c(s1)CC[C@@]1(C)C2=CC[C@H]2[C@@H]3CC[C@H](O)[C@@]3(C)CC[C@@H]21	%	56.9
CN1CC(=O)N(O)C1(C)c1cccnc1 (configuration not stated)	%	102
CC1[C@H](C)OC(=O)CC(O)CC(O)CC(O)CCC(O)C(O)C[C@]2(O)CC(O)C(C(=O)O)C(CC(OC3O[C@H](C)[C@@H](O)[C@H](N)[C@@H]3O)/C=C/C=C/C=C/C=C/CC/C=C/C=C/[C@H](C)[C@H]1O)O2 (some centres not stated)	%	99.3
Clc1cccc(N2COOC3(OOC2)C2CC4CC(C2)CC3C4)c1	%	73.5
CC[C@H](C)[C@H](NC(=O)NC(C)(C)C)C(=O)N(C)[C@H](C[C@@H](OC(C)=O)c1nc(C(=O)N[C@@H](Cc2ccccc2)C[C@H](C)C(=O)OC)cs1)C(C)C	%	48.8
CC1(C)N=C(N)N=C(N)N1c1cccc(CCCCc2ccc(Cl)c(S(=O)(=O)F)c2)c1	%	56
COc1ccc(C(=O)c2sc3nc4c(cc3c2N)N2CCC4CC2)cc1OC	%	93
CC(=O)[O][Hg][c]1c(N)c(C)cc(C)c1F	%	-72.4
O=C([O][Hg][CH2]C1OCCOC1[CH2][Hg][O]C(=O)c1ccccc1)c1ccccc1 (configuration not stated)	%	-98.3
Clc1cccc(NCOOC2(OOCNc3cccc(Cl)c3)CCCCCC2)c1	%	97
CCC[CH2][Sn]([CH2]CCC)([CH2]CCC)[O]c1ccc(Cl)cc1Cl	%	-61.5
CCOc1ccccc1C(=O)OCC(Cl)(Cl)Cl	%	109
CCn1nccc1NC(=O)C(=O)c1cn(Cc2ccc(F)cc2)c2cccc(OC)c12	%	109
O=[As](O)(O)c1ccccc1[As](=O)(O)O	%	115
C/C=C(\C)C(=O)O[C@@H]1C(O)[C@H]2OC(COC(=O)CCC(=O)CCCCCC[C@H](CCCCC)O[C@@H]3OC(C)[C@H](OC(C)=O)C(O)[C@H]3O2)[C@H]1OC(=O)/C=C/c1ccccc1 (some centres not stated)	%	14.9
CN1CCCCC1C(C)(O)c1ccccc1 (configuration not stated)	%	97.6
Cn1cccc1C1CC(=O)N(CCC[Se]C#N)C1=O (configuration not stated)	%	-30.1
COc1ccc(Nc2ccnc3cc(Cl)ccc23)cc1CN(CCCl)CCCl	%	-85.3
COc1cccc2c1c(C(=O)C(=O)Nc1cc(C)no1)cn2Cc1ccc(F)cc1	%	69.3
COc1cccc2c1c(C(=O)c1ccco1)cn2Cc1ccc(F)cc1	%	131
COC1OC(CO)C(O)C(O)[CH]1[Hg][O]C(C)=O (configuration not stated)	%	76.4
CCCCN1CCCC[C@@H]1C(=O)N[C@H](C(=O)N(C)[C@H](C[C@@H](OC(C)=O)c1nc(C(=O)NC2CCC(C(=O)OC)CC2)cs1)C(C)C)C(C)C (some centres not stated)	%	43.8
CC1=C(CNO)C2=C(C)C3(CC3)[C@@](C)(O)C(=O)C2=C1	%	-62.6
CC(=O)O[C@H]1CC[C@@]2(C)C(=CC[C@H]3[C@@H]4C[C@@H](N5CC5)[C@H](C(C)=O)[C@@]4(C)CC[C@@H]32)C1	%	98.1
N#CCCNc1ccccc1	%	120
O=C(CCCCCCC(=O)Nc1ccc(N(CCCl)CCCl)cc1)NO	%	19.2
CC(=O)OC1CCC2C3CCC4=C/C(=N/OC(=O)c5ccc(N(CCCl)CCCl)cc5)CCC4(C)C3CC(C)C12 (configuration not stated)	%	76.3
